These data points were gathered from patent US20220293224A1.

pKi values recorded for human CB1 (Homo sapiens)
Please treat pKi as minus the base-10 logarithm of the molar concentration.

Some solved cases for reference:
CCCC(NS(=O)(=O)C1CC2(CC2)C1)C(=O)Nc1cccc(N2CCCC2)c1 (centres unmarked)	6.38
CC1(C)NC(=O)N(CCCNC(=O)NCc2oc3ccc(Cl)cc3c2-c2ccccc2)C1=O	6.01
C=CCC1(S(=O)(=O)NC(=O)c2ccc(N3CCCCC3)c(S(=O)(=O)N3CCCCCC3)c2)CC1	5.74
Cc1ccc(NC(=O)N2CCC(O)(c3ccccc3F)C2)cc1S(=O)(=O)N1CCCCCC1 (centres unmarked)	5.63
Cc1ccc(NC(=O)Nc2ccn(C3CCOCC3)n2)cc1S(=O)(=O)N1CCCCCC1	6.55

// lookup pKi | system=human CB1 (Homo sapiens) | key= O=C1CCc2cc(OCCNC(=O)N(Cc3ccccc3)Cc3ccc(F)cc3)ccc2N1
7.30

// lookup pKi | system=human CB1 (Homo sapiens) | key= Cn1ccc(-n2cc(-c3csc(C(NC(=O)c4ccccc4)c4ccccc4)n3)nn2)n1 (centres unmarked)
5.24

// lookup pKi | system=human CB1 (Homo sapiens) | key= N#Cc1ccc(C(=O)NCCN(Cc2ccccc2)C(=O)c2cc(C(F)(F)F)cs2)s1
6.64
